Molecular target: mUSP18 (Mus musculus, UniProt Q9WTV6)
Construct: (46-368); His-tag (N); made in house
Sequence (Q9WTV6 46-368): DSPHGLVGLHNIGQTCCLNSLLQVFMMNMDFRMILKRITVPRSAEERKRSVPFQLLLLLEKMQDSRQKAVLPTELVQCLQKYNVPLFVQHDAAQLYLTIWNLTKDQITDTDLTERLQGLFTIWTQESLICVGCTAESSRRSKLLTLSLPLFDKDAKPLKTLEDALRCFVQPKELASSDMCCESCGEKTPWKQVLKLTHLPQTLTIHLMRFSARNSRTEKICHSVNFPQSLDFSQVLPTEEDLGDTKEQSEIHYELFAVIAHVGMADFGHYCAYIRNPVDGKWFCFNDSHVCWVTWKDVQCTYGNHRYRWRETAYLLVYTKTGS
Assay: High-throughput screening, ISG15ct-RhoMP, single dose 1.25 µM
Assay type: biochemical, murine
Conditions: mUSP18 %inhibition; carboxylic acid (CA) building block alone; read-out: %inh CA only
outcome_measure: inhibition at 1.25 µM (%)

Past entries and their recorded results:
molecule	inhibition at 1.25 µM, %
Cn1nccc1[1C@@H]1OCCC[1C@H]1C(=O)O	14.4
COc1ccc(CN2CCC2C(=O)O)cc1 (stereo not drawn)	3.67

a = CC(C)C(=O)O
b = O=C(O)c1ccc(=O)n(C2CC2)c1
c = O=C(O)CC(NS(=O)(=O)c1ccccc1)c1ccc(Cl)cc1 (stereo not drawn)
d = CN1CCN(C(=O)C2CC=CCC2C(=O)O)CC1 (stereo not drawn)
Enquiry: Put the molecules in ascending order of inhibition at 1.25 µM. Please express your ranking as an ordered list of the labels.
Return: a, b, d, c
(a: -4.83%, b: -1.56%, d: 2.59%, c: 22.3%)
